Measured values drawn from paper PMC4200025 for this set.

test: Two-compartment pharmacokinetic analysis of plasma data; assay type: in vivo; settings: ND4 Swiss Webster, mouse, iv, 0.24 mg/kg, distribution half-life, mice, IV 0.24 mg/kg dye, two-compartment model
Quantity Name: half-life

Problem: Given the compound CC1(C)C(/C=C/C=C/C=C/C=C2\N(CCCCS(=O)(=O)O)c3ccc4ccccc4c3C2(C)C)=[N+](CCCCS(=O)(=O)[O-])c2ccc3ccccc3c21 , what is its reported half-life?
Result: ~3.06 min
